# credit: patent US20210253718A1

# SYSTEM_TESTED: T1, FZD9 cysteine-rich domain (CRD), MYC-tagged and GPI-anchored on CHO cells (human, UniProt O00144 35-161, GPI anchor)
# T1 construct: also called FZD9 CRD; CHO-myc-FZDGPI; not shown: MYC tag and GPI anchor signal
# T1 sequence: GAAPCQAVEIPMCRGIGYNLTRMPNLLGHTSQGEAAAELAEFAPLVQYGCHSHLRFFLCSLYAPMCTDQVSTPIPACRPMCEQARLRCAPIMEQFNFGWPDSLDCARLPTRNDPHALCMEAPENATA
# ASSAY_NAME: flow cytometry, CHO-CRD cells;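 further: flow cytometry of Fab binding to CHO cells overexpressing a Frizzled CRD, with binding defined as median fluorescence over twice that of CHO cells lacking any Frizzled CRD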
Measured median fluorescence by item
Enter the number alone.

{"BINDER": "Fab-2928 (Fab, V domains shown, Fab; also called Fv-2928) VH: EVQLVESGGGLVQPGGSLRLSCAASGFNISYSSIHWVRQAPGKGLEWVASIYPSYSSTYYADSVKGRFTISADTSKNTAYLQMNSLRAEDTAVYYCARYYAMDYWGQGTLVTVSS VL: DIQMTQSPSSLSASVGDRVTITCRASQSVSSAVAWYQQKPGKAPKLLIYSASSLYSGVPSRFSGSRSGTDFTLTISSLQPEDFATYYCQQAFYYPITFGQGTKVEIK", "VALUE_KIND": "median fluorescence", "VALUE": 4.49}

Now take the following binder into account.
*Q* I would be grateful if you could share the reported median fluorescence for Fab-2929 (Fab, V domains shown, Fab; also called Fv-2929) VH: EVQLVESGGGLVQPGGSLRLSCAASGFNISYYYIHWVRQAPGKGLEWVASIYPSSSSTSYADSVKGRFTISADTSKNTAYLQMNSLRAEDTAVYYCARGAMDYWGQGTLVTVSS VL: DIQMTQSPSSLSASVGDRVTITCRASQSVSSAVAWYQQKPGKAPKLLIYSASSLYSGVPSRFSGSRSGTDFTLTISSLQPEDFATYYCQQWYSSYGLITFGQGTKVEIK .
*A* 3.08
